biological target: human GPR119 (Homo sapiens, UniProt Q8TDV5); construct: expressed in transfected cells; host or cells: HEK 293s; assay: Cyclic AMP (HTRF cAMP) assay for human GPR119, Method A; type: cell-based; conditions: HEK293S, 0.75 h; Method A; HEK 293s cells over-expressing human GPR119; percent effect at top concentration 30 μM relative to maximum (50 μM Oleoylethanolamide) and minimum (1% DMSO) controls
Sequence (Q8TDV5 whole entry): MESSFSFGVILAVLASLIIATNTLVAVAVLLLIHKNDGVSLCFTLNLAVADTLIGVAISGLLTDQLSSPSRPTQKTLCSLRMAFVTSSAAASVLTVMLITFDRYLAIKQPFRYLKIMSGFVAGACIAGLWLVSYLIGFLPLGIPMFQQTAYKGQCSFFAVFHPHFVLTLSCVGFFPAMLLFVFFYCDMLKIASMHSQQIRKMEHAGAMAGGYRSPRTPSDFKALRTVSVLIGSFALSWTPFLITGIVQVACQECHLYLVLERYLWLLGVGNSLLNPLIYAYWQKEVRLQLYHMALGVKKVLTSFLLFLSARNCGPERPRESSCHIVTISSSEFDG
Label rule, in plain words: activation at 30 µM of 60% and up is class 1, under 60% is class 0.

{"columns": ["compound", "assayed_system", "label_class"],
 "data": [
  ["Cc1cc(S(C)(=O)=O)ccc1COc1cnc(N2CCN(C(=O)OC(C)(C)C)CC2)nc1", "human GPR119 (Homo sapiens, UniProt Q8TDV5)", "class 1"],
  ["C[C@@H]1CN(c2noc(C3(C)COC3)n2)CCN1c1ncc(OCc2ccncc2C#N)cn1", "human GPR119 (Homo sapiens, UniProt Q8TDV5)", "class 1"],
  ["CC(C)c1nc(N2CCN(c3ncc(OCc4ccc(S(C)(=O)=O)cc4)cn3)[C@H](C)C2)no1", "human GPR119 (Homo sapiens, UniProt Q8TDV5)", "class 1"],
  ["CS(=O)(=O)c1ccc(COc2cnc(N3CCN(C(=O)OC4COC4)CC3)nc2)cc1", "human GPR119 (Homo sapiens, UniProt Q8TDV5)", "class 0"],
  ["N#Cc1cnccc1COc1cnc(N2CCN(c3ncc(F)cn3)CC2)nc1", "human GPR119 (Homo sapiens, UniProt Q8TDV5)", "class 1"],
  ["Cc1cc(COc2cnc(N3CCN(C(=O)OC(C)(C)C)CC3)nc2)ccc1C(=O)NC(C)C", "human GPR119 (Homo sapiens, UniProt Q8TDV5)", "class 0"],
  ["C[C@@H]1CN(C(=O)OC2CCOC2)CCN1c1ncc(OCc2ccc(S(C)(=O)=O)cc2)cn1 (some centres unmarked)", "human GPR119 (Homo sapiens, UniProt Q8TDV5)", "class 0"]
]}

---

target: human GPR119 (Homo sapiens, UniProt Q8TDV5); construct: expressed in transfected cells; host or cells: HEK 293s; experiment: Cyclic AMP (HTRF cAMP) assay for human GPR119, Method A; format: cell-based; details: HEK293S, 0.75 h; Method A; HEK 293s cells over-expressing human GPR119; percent effect at top concentration 30 μM relative to maximum (50 μM Oleoylethanolamide) and minimum (1% DMSO) controls
activation at 30 µM values, listed per item

{"columns": ["compound", "activation at 30 µM / %"],
 "data": [
  ["C[C@@H]1CN(C(=O)OC2(C(F)(F)F)COC2)CCN1c1ncc(OCc2ccc(S(C)(=O)=O)cc2)cn1 [Example 110]", 55],
  ["CC(C)(C)OC(=O)N1CCN(c2ncc(OCc3ccc(-n4cncn4)cc3)cn2)CC1 [Example 2]", 131],
  ["CC(C)(C)OC(=O)N1CCN(c2ncc(OCc3ccc(OS(C)(=O)=O)cc3)cn2)CC1 [Example 17]", 65],
  ["C[C@@H]1CN(C(=O)OC2(C)COC2)CCN1c1ncc(OCc2ccc(S(C)(=O)=O)cc2)cn1 [Example 80]", 41],
  ["CC(C)(C#N)OC(=O)N1CCN(c2ncc(OCc3ccc(S(C)(=O)=O)cc3)cn2)CC1 [Example 70]", 28],
  ["CC(C)OC(=O)N1CCN(c2ncc(OCc3ccncc3C#N)cn2)CC1 [Example 58]", 154],
  ["CC(C)(C)OC(=O)N1CCN(c2ncc(OCc3ccc(-n4cnnn4)cc3)cn2)CC1 [Example 7]", 170],
  ["C[C@@H]1CN(C(=O)OC2CCC2)CCN1c1ncc(OCc2ccc(S(C)(=O)=O)cc2)cn1 [Example 64]", 57]
]}

src = patent US20110065706A1
